Measured values drawn from PubChem BioAssay (Tox21) for this set.

Test: qHTS assay to identify small molecule agonists or antagonists of the thyroid stimulating hormone receptor (TSHR) signaling pathway - wild type cell line counter screen (AID 1259384)
Details: HEK293 wild type, cAMP HTRF counter-screen; series mostly up to 92.4 µM
Records with an inconclusive call do not appear. Activity calls are given as the source filed them. Calls come from the whole dose curve.
Choose the fitting class; nothing outside 1.0 (active), 0.0 (inactive) is accepted.

compound: CCN(CC)C(C)C(=O)c1ccccc1 (stereo unspecified)
group: 0.0

compound: CCC(C)n1c(=O)[nH]c(C)c(Br)c1=O (stereo unspecified)
group: 0.0

compound: O=C1CN2CCOC2(c2ccccc2Cl)c2cc(Cl)ccc2N1 (stereo unspecified)
group: 0.0

Incoming: // return assay outcome for Cc1ccccc1CO[C@@H]1C[C@@]2(C(C)C)CC[C@]1(C)O2
Outgoing: 0.0

Incoming: // return assay outcome for C[C@]1(O)CC[C@H]2[C@@H]3CCC4=CC(=O)CC[C@]4(C)[C@@]3(F)[C@@H](O)C[C@@]21C
Outgoing: 0.0

Incoming: // return assay outcome for COC(=O)C1=CCCN(C)C1
Outgoing: 0.0

Incoming: // return assay outcome for O=C(O)c1ccc2[nH]cc(CCCCN3CC=C(c4ccccc4)CC3)c2c1
Outgoing: 0.0

Incoming: // return assay outcome for O=[N+]([O-])c1cc(Cl)c(Cl)c(Cl)c1
Outgoing: 0.0

Incoming: // return assay outcome for Cc1cc(C)nc(Nc2ccccc2)n1
Outgoing: 0.0

Incoming: // return assay outcome for CCCSC(=O)N(CCC)CCC
Outgoing: 0.0

Incoming: // return assay outcome for ClCCOCOCCCl
Outgoing: 0.0
